system: pigweed (Amaranthus retroflexus); experiment: Test C preemergence; assay type: in vivo; settings: 31 g ai/ha, 0 is no effect, 100 is complete control
Below: a set of entries, each annotated with reported Plant response rating (scale of 0 to 100), Pigweed.

CN1CC(c2cccc(OC(F)F)c2)C(C(=O)Nc2ccccc2F)C1=O (centres unmarked) [Compound 618]; 40
CN1C[C@H](c2ccc(C(F)(F)F)cc2)[C@@H](C(=O)Nc2ccccc2F)C1=O [Compound 622]; 75

Can you share its Plant response rating (scale of 0 to 100), Pigweed? I mean this compound: O=C1NCC(c2cccc(OC(F)(F)C(F)F)c2)C1C(=O)Nc1ccccc1F (racemic) [Compound 695]
50

Item: Cc1ccc(C2CN(C)C(=O)C2C(=O)Nc2cccc(F)c2F)cc1 (centres unmarked) [Compound 662]
70

Please give the result for CN1CC(c2ccc(C(F)(F)F)cc2)C(C(=O)Nc2ccccc2S(C)(=O)=O)C1=O (centres unmarked) [Compound 624] too.
80

----------
tested on: wheat (winter wheat, Triticum aestivum); assay: Test C preemergence; type: in vivo; conditions: 125 g ai/ha, scale 0 to 100, 0 no effect, 100 complete control
Plant response rating, Wheat for assorted compounds
Form: value (number only, do not type unit).

Worked cases, answers included:
Cc1cccc(C2CN(C)C(=O)C2C(=O)Nc2cccc(F)c2F)c1 (centres unmarked); 55
Cc1ccc(C2CN(C)C(=O)C2C(=O)Nc2cccc(F)c2F)cc1F (centres unmarked); 70
O=C1NCC(c2cc(F)cc(Cl)c2)C1C(=O)Nc1cccc(F)c1F (centres unmarked); 5
CN1CC(c2ccc(C(C)(F)F)cc2)C(C(=O)Nc2ccccc2F)C1=O (centres unmarked); 80

For the next question, use this compound.
Tell me the measured Plant response rating, Wheat of CN1CC(c2cccc(OC(F)(F)C(F)F)c2)C(C(=O)Nc2ccc(F)cc2F)C1=O (centres unmarked) , please.
35

----------
Overview of reported pest or weed control at 15.625 g/ha across a group of compounds:
tested on: giant foxtail (Setaria faberi); assay: Test G Pre-Emergence Protocol; assay type: in vivo; conditions: Setaria faberi, pre-emergence, 312 h, 15.625 g ai/ha, evaluated after 13 days, read-out: Foxtail, Giant damage rating (100=total damage to plant; 0=no damage to plant)
Just the number in %, nothing appended.

State the recorded pest or weed control at 15.625 g/ha for this entry: CN1C[C@@H](c2ccc(C(F)(F)F)cc2)[C@H](C(=O)Nc2cncnc2)C1=O (racemic)
0

Query CN1C[C@@H](c2ccc(C(F)(F)F)cc2)[C@H](C(=O)Nc2cc(Cl)n[nH]2)C1=O (racemic) next
0

Now this one: CN1C[C@@H](c2ccc(C(F)(F)F)cc2)[C@H](C(=O)Nc2cc(F)ncn2)C1=O (racemic)
0

Also need COc1ccc(C2CN(C)C(=O)C2C(=O)Nc2cccc(F)c2F)cc1C (stereo not shown) , thanks.
70

And the next one, CN1C[C@@H](c2ccc(C(F)(F)F)cc2)[C@H](C(=O)Nc2ccnnc2)C1=O (racemic) ?
0

Do the same for CN1C[C@@H](c2ccc(C(F)(F)F)cc2)[C@H](C(=O)Nc2ccc(F)cc2C(F)(F)F)C1=O (racemic) please
0

Now consider Cc1c(F)cccc1NC(=O)[C@@H]1C(=O)N(C)C[C@H]1c1cccc(C(C)(C)O)c1 (racemic) .
20
